- targetDesc: KRAS Q61H (Homo sapiens (Human), UniProt P01116+P62937, Q61H)
- Sequence (P01116-2 other isoform, or with tags, fused parts or gaps Q61H): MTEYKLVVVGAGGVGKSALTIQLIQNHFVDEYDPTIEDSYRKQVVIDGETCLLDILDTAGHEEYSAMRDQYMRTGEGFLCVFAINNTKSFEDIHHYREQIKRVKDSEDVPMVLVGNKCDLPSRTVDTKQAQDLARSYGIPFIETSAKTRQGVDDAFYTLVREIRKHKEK
- Sequence (P62937 whole entry): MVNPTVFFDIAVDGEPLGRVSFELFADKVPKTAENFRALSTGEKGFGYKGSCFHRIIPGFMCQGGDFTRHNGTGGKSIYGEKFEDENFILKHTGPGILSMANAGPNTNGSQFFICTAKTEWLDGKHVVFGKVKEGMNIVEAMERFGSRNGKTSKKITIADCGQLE
- assay: Ras-Raf (BRAF RBD) disruption / FRET / MOA assay, KRAS Q61H
- Format: biochemical
- appliedConditions: Ras-Raf disruption/FRET/MOA assay; class symbols; read-out: KRAS Q61H FRET data IC50
# IC50 per entry

Examples with their reported IC50 follow.
- molecule: "C=CC(=O)N1CC[C@H](C(=O)N(C)[C@H](C(=O)N[C@H]2Cc3nc(cs3)-c3ccc4c(c3)c(c(-c3cccnc3[C@H](C)OC)n4CC(F)(F)F)CC(C)(C)COC(=O)[C@@H]3CCCN(N3)C2=O)C(C)C)C1 (atropisomer, axis not shown)"
  IC50: "100 to 1000 nM"
- molecule: "CO[C@@H](C)c1ncccc1-c1c2c3cc(ccc3n1CC(F)(F)F)-c1csc(n1)C[C@H](NC(=O)[C@H](C(C)C)N(C)C(=O)N1CCC3(CC1)CN(C(=O)/C=C/CF)C3)C(=O)N1CCC[C@H](N1)C(=O)OCC(C)(C)C2 (atropisomer, axis not shown)"
  IC50: "10 to 100 nM"
- molecule: "C=CC(=O)N1CCN(C(=O)N(C)[C@H](C(=O)N[C@H]2Cc3nc(cs3)-c3ccc4c(c3)c(c(-c3cccnc3[C@H](C)OC)n4CC)CC(C)(C)COC(=O)[C@@H]3CCCN(N3)C2=O)C(C)C)[C@@H]2C[C@@H]21 (atropisomer, axis not shown)"
  IC50: "10 to 100 nM"

Consider the additional molecule presented here.
Ask: Item under review: C=CC(=O)N(C)CCN1CCN(C(=O)N(C)[C@H](C(=O)N[C@H]2Cc3cccc(c3)-c3ccc4c(c3)c(c(-c3cccnc3[C@H](C)OC)n4CC)CC(C)(C)COC(=O)[C@@H]3CCCN(N3)C2=O)C(C)C)C[C@H]1C (atropisomer, axis not shown) . Reported IC50?
Reply: 100 to 1000 nM
